testSystem: Histamine H1 receptor (Rattus norvegicus)
Sequence (P31390 whole entry): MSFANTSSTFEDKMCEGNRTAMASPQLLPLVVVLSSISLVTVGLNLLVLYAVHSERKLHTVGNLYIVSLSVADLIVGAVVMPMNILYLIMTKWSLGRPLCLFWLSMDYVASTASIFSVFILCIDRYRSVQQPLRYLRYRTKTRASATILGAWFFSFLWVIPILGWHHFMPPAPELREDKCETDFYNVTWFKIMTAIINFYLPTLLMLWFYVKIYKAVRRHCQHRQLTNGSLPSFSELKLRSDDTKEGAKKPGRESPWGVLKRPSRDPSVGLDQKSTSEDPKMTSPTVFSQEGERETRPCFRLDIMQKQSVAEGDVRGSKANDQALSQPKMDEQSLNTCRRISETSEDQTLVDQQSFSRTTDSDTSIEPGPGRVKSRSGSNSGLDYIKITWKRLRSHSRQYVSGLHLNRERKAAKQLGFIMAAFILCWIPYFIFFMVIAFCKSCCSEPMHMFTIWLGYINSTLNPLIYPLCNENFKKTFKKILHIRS
method: Compound was evaluated for binding activity against [3H]pyrilamine as radioligand for Histamine H1 receptor
pIC50: −log10 of the molar value.
endpointLabel: pIC50

>  <chemicalStructure>
Nc1ccc2c(=O)n(CCN3CCC(C(=O)c4ccc(F)cc4)CC3)c(=O)[nH]c2c1

>  <testSystem>
Histamine H1 receptor (Rattus norvegicus)

>  <endpointLabel>
pIC50

>  <reading>
8.65

$$$$

----------
method: Compound was evaluated at solubilized receptor (CHAPS/salt-solubilized preparation) from rat frontal cortex
Type: tissue-based

>  <chemicalStructure>
Nc1ccc2c(=O)n(CCN3CCC(C(=O)c4ccc(F)cc4)CC3)c(=O)[nH]c2c1

>  <Ki [nM]>
2.23

$$$$
